Numbers sourced from the supplement of paper PMC10567573.

Overview of recorded protein stability index for various variants
B1: ESRRA (parent)
chain: SLPLQDELAFAEDLVLDEEGARAA

Variants of: B1
Assay: protein stability index of a GFP-peptide fusion (GPS, HEK-293T) (PSI 1-6); higher = more stable;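 further: lentivirally expressed fusions sorted by FACS into six bins by GFP to DsRed ratio, PSI derived from sequencing read proportions per bin multiplied by bin number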
Conditions: c terminus: a fixed tail appended
// return just the number, without any unit appended

Seq string	Obs value
SLPLQDELAFAEDLVLDEMGARAA	1.85

Task: State its protein stability index: SLPLQDELAFAEDLVLDEESARAA
Output: 4.04

Task: Determine its reported protein stability index: SLPLQDELAFAEDLVQDEEGARAA
Output: 3.54

Task: Give the reported value of protein stability index for this record: SLPLQDELACAEDLVLDEEGARAA
Output: 3.36

Task: Supply reported protein stability index belonging to this variant: SLPLQDELAFAEDLVLDQEGARAA
Output: 2.8

Task: // fetch protein stability index given entry SLPLQDELAFAEDMVLDEEGARAA
Output: 3.29

Task: Look up and report measured protein stability index for this entry: SNPLQDELAFAEDLVLDEEGARAA
Output: 3.86

Task: Return the recorded protein stability index value; entry: SLPLQDELAFAEDLVLDEEGARAD
Output: 3.71

Task: Consider the variant SLMLQDELAFAEDLVLDEEGARAA . State its measured protein stability index.
Output: 4.18
